pIC50: −log10 of the molar value.
We begin with pIC50 values for Cyclin-dependent kinase 5 (Homo sapiens), as collected from the published literature.

Examples with their reported pIC50 follow.
- Molecule: "Cc1cnccc1-c1ccnc(Nc2cccc(Cl)c2)n1"
  Assay target: "Cyclin-dependent kinase 5 (Homo sapiens)"
  Result: "> 5.30"
- Molecule: "NCCCNc1ncccc1-c1ccnc(Nc2cccc(Cl)c2)n1"
  Assay target: "Cyclin-dependent kinase 5 (Homo sapiens)"
  Result: "> 5.30"
- Molecule: "CC(C)NCCCNc1ncccc1-c1ccnc(Nc2cccc(Cl)c2)n1"
  Assay target: "Cyclin-dependent kinase 5 (Homo sapiens)"
  Result: "> 5.30"
- Molecule: "NS(=O)(=O)c1ccc(Nc2ncc3cc4n(c3n2)C2(CCCCC2)C(=O)N[C@@H]4CF)cc1"
  Assay target: "Cyclin-dependent kinase 5 (Homo sapiens)"
  Result: 7.92
- Molecule: "COc1ncccc1-c1ccnc(Nc2cccc(C#N)c2)n1"
  Assay target: "Cyclin-dependent kinase 5 (Homo sapiens)"
  Result: "> 5.30"
- Molecule: "CN1CCN(C(=O)c2ccc(Nc3ncc4cc5n(c4n3)C3(CCCCC3)CC(=O)N5)cc2)CC1"
  Assay target: "Cyclin-dependent kinase 5 (Homo sapiens)"
  Result: 8.52
- Molecule: "Clc1cccc(Nc2nccc(-c3ccnc4ccccc34)n2)c1"
  Assay target: "Cyclin-dependent kinase 5 (Homo sapiens)"
  Result: "> 5.30"
- Molecule: "CN1CCN(S(=O)(=O)c2ccc(Nc3ncc4cc5n(c4n3)C3(CCCCC3)C(=O)NC5O)cc2)CC1 (stereo not drawn)"
  Assay target: "Cyclin-dependent kinase 5 (Homo sapiens)"
  Result: 7.15

Entry Cc1ccc2[nH]ccc2c1-c1ccnc(Nc2cccc(S(C)(=O)=O)c2)n1 : reported pIC50 = ?
> 5.30

How about CC(=O)NCCCNc1ncccc1-c1ccnc(Nc2cccc(S(C)(=O)=O)c2)n1 ?
4.82 to 5.30

How about CC(=O)NCCCNc1ncccc1-c1ccnc(Nc2cccc(Cl)c2)n1 ?
> 5.30

How about Clc1cccc(Nc2nccc(-c3cccnc3NCCCn3ccnc3)n2)c1 ?
> 5.30

How about CC(=O)NCC(C)(C)CNc1ncccc1-c1ccnc(Nc2cccc(Cl)c2)n1 ?
4.82 to 5.30

How about COc1cnccc1-c1ccnc(Nc2cccc(Cl)c2)n1 ?
> 5.30

How about CC1C(=O)Nc2cc3cnc(Nc4ccc(S(N)(=O)=O)cc4)nc3n2C12CCCCC2 (stereo not drawn) ?
8.70

How about CC(C)N1CCOc2c(F)cc(-c3nc(Nc4ccc(N5CCC(N(C)C)CC5)c(F)c4)ncc3F)cc21 ?
8.44

How about CS(=O)(=O)NCCCNc1ncccc1-c1ccnc(Nc2cccc(Cl)c2)n1 ?
> 5.30

How about CC(=O)NCCCNc1nccc(-c2ccnc(Nc3cccc([N+](=O)[O-])c3)n2)c1C ?
> 5.30
